yeast fitness values for the variants below.
B1: tRNA (parent)
chain: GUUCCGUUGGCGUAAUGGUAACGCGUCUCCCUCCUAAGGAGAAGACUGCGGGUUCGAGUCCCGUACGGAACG

Variants of: B1
Assay: yeast fitness relative to wild type (ratio to wild type); higher = fitter; tRNA-Arg(CCU), competitive growth, 37 C, YPD
Fewer inactive variants are shown than the library holds.
Test Readout: yeast fitness

- Variant Descriptor: "C4U G17C C49G G50C"
  Inequality Operator: "="
  Test Result: 0.652
- Variant Descriptor: "A15C U35A"
  Inequality Operator: "="
  Test Result: 0.599
- Variant Descriptor: "C34U G48A C55U"
  Inequality Operator: "="
  Test Result: 0.638
- Variant Descriptor: "A20U C46A"
  Inequality Operator: "="
  Test Result: 0.858
- Variant Descriptor: "A40G G44C U53C C55A A65U"
  Inequality Operator: "≤"
  Test Result: 0.5
- Variant Descriptor: "G12A C24A U26A C31A G67A"
  Inequality Operator: "≤"
  Test Result: 0.5
- Variant Descriptor: "C5U G18C C49U U54G"
  Inequality Operator: "≤"
  Test Result: 0.5
- Variant Descriptor: "G10A U28C C60G"
  Inequality Operator: "≤"
  Test Result: 0.5
- Variant Descriptor: "A15U C46A C61G A69G"
  Inequality Operator: "≤"
  Test Result: 0.5
- Variant Descriptor: "A14C C49G A70U"
  Inequality Operator: "≤"
  Test Result: 0.5
- Variant Descriptor: "A15G G17A U19A U32G"
  Inequality Operator: "≤"
  Test Result: 0.5
- Variant Descriptor: "A14U U16G C33G G50A G58C G63C"
  Inequality Operator: "≤"
  Test Result: 0.5
- Variant Descriptor: "A21C A69C"
  Inequality Operator: "="
  Test Result: 0.809
- Variant Descriptor: "C5U C24G C62G G68C"
  Inequality Operator: "≤"
  Test Result: 0.5
- Variant Descriptor: "C22A C27U"
  Inequality Operator: "="
  Test Result: 0.976
- Variant Descriptor: "C22G C49G C62G"
  Inequality Operator: "≤"
  Test Result: 0.5
- Variant Descriptor: "C4A C22A C55U"
  Inequality Operator: "≤"
  Test Result: 0.5
- Variant Descriptor: "A14G A15U"
  Inequality Operator: "="
  Test Result: 0.704
- Variant Descriptor: "U2C C31G G56A U59A"
  Inequality Operator: "≤"
  Test Result: 0.5
- Variant Descriptor: "U32C C60G A65C"
  Inequality Operator: "="
  Test Result: 0.501
- Variant Descriptor: "A15G A20C C34U U59G"
  Inequality Operator: "="
  Test Result: 0.705
- Variant Descriptor: "G51A G58A A65U"
  Inequality Operator: "="
  Test Result: 0.713
